Listing: pIC50 of selected molecules
System: MDA-MB-231
Assay: cells
Conditions: Homo sapiens, MDA-MB-231, 72 h
Description: Cytotoxicity against human MDA-MB-231 cells after 72 hrs by MTT assay
pIC50: −log10 of the molar value.
assay-metric: pIC50

structure-as-smiles	assay-metric	meas-value
CO[C@H]1/C=C\C=C(/C)C(=O)NC2=CC(=O)C(NCc3cccc(C#N)c3)=C(C[C@@H](C)C[C@H](OC)[C@H](O)[C@@H](C)/C=C(\C)[C@@H]1OC(N)=O)C2=O	pIC50	6.35
CO[C@H]1/C=C\C=C(/C)C(=O)NC2=CC(=O)C(NCc3ccsc3)=C(C[C@@H](C)C[C@H](OC)[C@H](O)[C@@H](C)/C=C(\C)[C@@H]1OC(N)=O)C2=O	pIC50	6.40
CO[C@H]1/C=C\C=C(/C)C(=O)NC2=CC(=O)C(NCc3ccc(C#N)cc3)=C(C[C@@H](C)C[C@H](OC)[C@H](O)[C@@H](C)/C=C(\C)[C@@H]1OC(N)=O)C2=O	pIC50	6.60
CO[C@H]1/C=C\C=C(/C)C(=O)NC2=CC(=O)C(NCc3ccc(Cl)cc3)=C(C[C@@H](C)C[C@H](OC)[C@H](O)[C@@H](C)/C=C(\C)[C@@H]1OC(N)=O)C2=O	pIC50	6.34
CO[C@H]1/C=C\C=C(/C)C(=O)NC2=CC(=O)C(NCc3cccc([N+](=O)[O-])c3)=C(C[C@@H](C)C[C@H](OC)[C@H](O)[C@@H](C)/C=C(\C)[C@@H]1OC(N)=O)C2=O	pIC50	6.16

* * *

Test system: MDA-MB-231
Assay: cells
Conditions: Homo sapiens, MDA-MB-231, 72 h
Below, each entry is listed with its recorded IC50.

structure-as-smiles	test-target	IC50
COC(=O)c1ccc(CNC2=C3C[C@@H](C)C[C@H](OC)[C@H](O)[C@@H](C)/C=C(\C)[C@H](OC(N)=O)[C@@H](OC)/C=C\C=C(/C)C(=O)NC(=CC2=O)C3=O)cc1	MDA-MB-231	130 nM
CO[C@H]1/C=C\C=C(/C)C(=O)NC2=CC(=O)C(NCc3ccc(F)c(F)c3)=C(C[C@@H](C)C[C@H](OC)[C@H](O)[C@@H](C)/C=C(\C)[C@@H]1OC(N)=O)C2=O	MDA-MB-231	630 nM
CO[C@H]1/C=C\C=C(/C)C(=O)NC2=CC(=O)C(NCc3cccc(N)c3)=C(C[C@@H](C)C[C@H](OC)[C@H](O)[C@@H](C)/C=C(\C)[C@@H]1OC(N)=O)C2=O	MDA-MB-231	560 nM
CO[C@H]1/C=C\C=C(/C)C(=O)NC2=CC(=O)C(NCc3ccc(S(C)(=O)=O)cc3)=C(C[C@@H](C)C[C@H](OC)[C@H](O)[C@@H](C)/C=C(\C)[C@@H]1OC(N)=O)C2=O	MDA-MB-231	350 nM
CO[C@H]1/C=C\C=C(/C)C(=O)NC2=CC(=O)C(NCc3ccc(Br)cc3)=C(C[C@@H](C)C[C@H](OC)[C@H](O)[C@@H](C)/C=C(\C)[C@@H]1OC(N)=O)C2=O	MDA-MB-231	240 nM

* * *

Target: Heat shock protein HSP 90-alpha (Homo sapiens)
Experiment: Displacement of GA-FITC from human recombinant HSP90alpha ATP-binding site by fluorescence polarization assay
Listing of entries alongside the reported IC50.
assay-metric: IC50 (µM)

structure-as-smiles	assay-metric	meas-value
CO[C@H]1/C=C\C=C(/C)C(=O)NC2=CC(=O)C(NCc3ccc(N)cc3)=C(C[C@@H](C)C[C@H](OC)[C@H](O)[C@@H](C)/C=C(\C)[C@@H]1OC(N)=O)C2=O	IC50	0.89
CO[C@H]1/C=C\C=C(/C)C(=O)NC2=CC(=O)C(NCc3ccc(C(F)(F)F)nc3)=C(C[C@@H](C)C[C@H](OC)[C@H](O)[C@@H](C)/C=C(\C)[C@@H]1OC(N)=O)C2=O	IC50	0.43
CO[C@H]1/C=C\C=C(/C)C(=O)NC2=CC(=O)C(NCc3ccc(Cl)nc3)=C(C[C@@H](C)C[C@H](OC)[C@H](O)[C@@H](C)/C=C(\C)[C@@H]1OC(N)=O)C2=O	IC50	1.04

* * *

Tested on: MDA-MB-231
Assay: cells
Settings: Homo sapiens, MDA-MB-231, 72 h
pIC50: −log10 of the molar value.
assay-metric: pIC50

structure-as-smiles	meas-value
COc1cccc(CNC2=C3C[C@@H](C)C[C@H](OC)[C@H](O)[C@@H](C)/C=C(\C)[C@H](OC(N)=O)[C@@H](OC)/C=C\C=C(/C)C(=O)NC(=CC2=O)C3=O)c1	6.06
CO[C@H]1/C=C\C=C(/C)C(=O)NC2=CC(=O)C(NCc3ccc(O)cc3)=C(C[C@@H](C)C[C@H](OC)[C@H](O)[C@@H](C)/C=C(\C)[C@@H]1OC(N)=O)C2=O	6.77
CO[C@H]1/C=C\C=C(/C)C(=O)NC2=CC(=O)C(NCc3ccc(N)cc3)=C(C[C@@H](C)C[C@H](OC)[C@H](O)[C@@H](C)/C=C(\C)[C@@H]1OC(N)=O)C2=O	6.77
CO[C@H]1/C=C\C=C(/C)C(=O)NC2=CC(=O)C(NCc3cccc(Cl)c3)=C(C[C@@H](C)C[C@H](OC)[C@H](O)[C@@H](C)/C=C(\C)[C@@H]1OC(N)=O)C2=O	6.42
CO[C@H]1/C=C\C=C(/C)C(=O)NC2=CC(=O)C(NCc3ccc(C(F)(F)F)nc3)=C(C[C@@H](C)C[C@H](OC)[C@H](O)[C@@H](C)/C=C(\C)[C@@H]1OC(N)=O)C2=O	7.00
CO[C@H]1/C=C\C=C(/C)C(=O)NC2=CC(=O)C(NCc3cccc(C)c3)=C(C[C@@H](C)C[C@H](OC)[C@H](O)[C@@H](C)/C=C(\C)[C@@H]1OC(N)=O)C2=O	6.10
CO[C@H]1/C=C\C=C(/C)C(=O)NC2=CC(=O)C(NCc3cncn3C)=C(C[C@@H](C)C[C@H](OC)[C@H](O)[C@@H](C)/C=C(\C)[C@@H]1OC(N)=O)C2=O	6.39
CCOC(=O)c1ccc(CNC2=C3C[C@@H](C)C[C@H](OC)[C@H](O)[C@@H](C)/C=C(\C)[C@H](OC(N)=O)[C@@H](OC)/C=C\C=C(/C)C(=O)NC(=CC2=O)C3=O)cc1	6.89
CO[C@H]1/C=C\C=C(/C)C(=O)NC2=CC(=O)C(NCc3ccc(F)cc3)=C(C[C@@H](C)C[C@H](OC)[C@H](O)[C@@H](C)/C=C(\C)[C@@H]1OC(N)=O)C2=O	6.20
COc1ccc(CNC2=C3C[C@@H](C)C[C@H](OC)[C@H](O)[C@@H](C)/C=C(\C)[C@H](OC(N)=O)[C@@H](OC)/C=C\C=C(/C)C(=O)NC(=CC2=O)C3=O)c(OC)c1	6.48
CO[C@H]1/C=C\C=C(/C)C(=O)NC2=CC(=O)C(NCc3ccccc3C)=C(C[C@@H](C)C[C@H](OC)[C@H](O)[C@@H](C)/C=C(\C)[C@@H]1OC(N)=O)C2=O	5.78

* * *

Test system: MDA-MB-231
Assay: cells
Conditions: Homo sapiens, MDA-MB-231, 72 h
pIC50: −log10 of the molar value.
Below, each entry is listed with its recorded pIC50.
assay-metric: pIC50

structure-as-smiles	assay-metric	meas-value
CO[C@H]1/C=C\C=C(/C)C(=O)NC2=CC(=O)C(NCc3ccc(C)cc3)=C(C[C@@H](C)C[C@H](OC)[C@H](O)[C@@H](C)/C=C(\C)[C@@H]1OC(N)=O)C2=O	pIC50	6.31
CO[C@H]1/C=C\C=C(/C)C(=O)NC2=CC(=O)C(NCc3ccc(S(N)(=O)=O)cc3)=C(C[C@@H](C)C[C@H](OC)[C@H](O)[C@@H](C)/C=C(\C)[C@@H]1OC(N)=O)C2=O	pIC50	5.97
COc1ccccc1CNC1=C2C[C@@H](C)C[C@H](OC)[C@H](O)[C@@H](C)/C=C(\C)[C@H](OC(N)=O)[C@@H](OC)/C=C\C=C(/C)C(=O)NC(=CC1=O)C2=O	pIC50	6.34
COc1ccc(CNC2=C3C[C@@H](C)C[C@H](OC)[C@H](O)[C@@H](C)/C=C(\C)[C@H](OC(N)=O)[C@@H](OC)/C=C\C=C(/C)C(=O)NC(=CC2=O)C3=O)cc1OC	pIC50	6.44
COc1cc(CNC2=C3C[C@@H](C)C[C@H](OC)[C@H](O)[C@@H](C)/C=C(\C)[C@H](OC(N)=O)[C@@H](OC)/C=C\C=C(/C)C(=O)NC(=CC2=O)C3=O)ccc1O	pIC50	6.80
CO[C@H]1/C=C\C=C(/C)C(=O)NC2=CC(=O)C(NCc3ccccc3Cl)=C(C[C@@H](C)C[C@H](OC)[C@H](O)[C@@H](C)/C=C(\C)[C@@H]1OC(N)=O)C2=O	pIC50	6.19
CO[C@H]1/C=C\C=C(/C)C(=O)NC2=CC(=O)C(NCc3ccc(Cl)nc3)=C(C[C@@H](C)C[C@H](OC)[C@H](O)[C@@H](C)/C=C(\C)[C@@H]1OC(N)=O)C2=O	pIC50	7.10
CO[C@H]1/C=C\C=C(/C)C(=O)NC2=CC(=O)C(NCc3ccc(I)cc3)=C(C[C@@H](C)C[C@H](OC)[C@H](O)[C@@H](C)/C=C(\C)[C@@H]1OC(N)=O)C2=O	pIC50	6.44
CO[C@H]1/C=C\C=C(/C)C(=O)NC2=CC(=O)C(NCc3cc(F)cc(F)c3)=C(C[C@@H](C)C[C@H](OC)[C@H](O)[C@@H](C)/C=C(\C)[C@@H]1OC(N)=O)C2=O	pIC50	6.46
COc1cc(CNC2=C3C[C@@H](C)C[C@H](OC)[C@H](O)[C@@H](C)/C=C(\C)[C@H](OC(N)=O)[C@@H](OC)/C=C\C=C(/C)C(=O)NC(=CC2=O)C3=O)cc(OC)c1OC	pIC50	6.19
COc1ccc(CNC2=C3C[C@@H](C)C[C@H](OC)[C@H](O)[C@@H](C)/C=C(\C)[C@H](OC(N)=O)[C@@H](OC)/C=C\C=C(/C)C(=O)NC(=CC2=O)C3=O)cc1	pIC50	6.74
CO[C@H]1/C=C\C=C(/C)C(=O)NC2=CC(=O)C(NCc3ccc(OC(F)(F)F)cc3)=C(C[C@@H](C)C[C@H](OC)[C@H](O)[C@@H](C)/C=C(\C)[C@@H]1OC(N)=O)C2=O	pIC50	6.74
